Attribute: Plant response rating, Corn
Tested on: corn (Zea mays)
PROCEDURE DETAILS: Test A postemergence, corn
Format: in vivo
CONDITION LABEL: 125 g ai/ha, visual injury, 0 to 100 scale (0 no effect, 100 complete control), approximately 10 days
Provide a numeric answer; units are not to be included.

Some entries whose results are on file:
MOLECULE	TARGET DESC	RECORDED RESULT
O=C1NCC(c2cccc(OCC3CC3)c2)C1C(=O)Nc1ccccc1Cl (centres unmarked) [Compound 4]	corn (Zea mays)	0
O=C1NCC(c2cccc(OCC3CC3)c2)C1C(=O)Nc1cccc(F)c1F (centres unmarked) [Compound 12]	corn (Zea mays)	0
CN1CC(c2cccc(Oc3ccc(C(F)(F)F)cn3)c2)C(C(=O)Nc2ccccc2F)C1=O (single isomer, unassigned) [Compound 43]	corn (Zea mays)	40
O=C1NCC(c2cccc(Cn3cccn3)c2)C1C(=O)Nc1ccc(F)cc1F (centres unmarked) [Compound 28]	corn (Zea mays)	0
CN(C)N=Cc1cccc(C2CN(C)C(=O)C2C(=O)Nc2ccccc2F)c1 (centres unmarked) [Compound 54]	corn (Zea mays)	0
O=C1NCC(c2cccc(COc3ccccc3)c2)C1C(=O)Nc1cccc(F)c1F (centres unmarked) [Compound 21]	corn (Zea mays)	0
O=C1NCC(c2cccc(OCC3OCCO3)c2)C1C(=O)Nc1cccc(F)c1F (centres unmarked) [Compound 7]	corn (Zea mays)	0
CN1CC(c2cccc(Oc3ccc(F)cn3)c2)C(C(=O)Nc2cccc(C#N)c2F)C1=O (single isomer, unassigned) [Compound 88]	corn (Zea mays)	20

Request: Print corn (Zea mays) Plant response rating, Corn for CN1CC(c2cccc(Oc3ccc(F)cn3)c2)C(C(=O)Nc2cccc(F)c2F)C1=O (single isomer, unassigned) [Compound 61] .
Response: 70

Request: For corn (Zea mays), give the measured Plant response rating, Corn of the entry CN1CC(c2cccc(Oc3ccc(F)cc3)c2)C(C(=O)Nc2ccccc2F)C1=O (single isomer, unassigned) [Compound 45]
Response: 0

Request: Recall the reported Plant response rating, Corn of O=C1NCC(c2cccc(Oc3ccccn3)c2)C1C(=O)Nc1cccc(F)c1F (centres unmarked) [Compound 68] when tested on corn (Zea mays).
Response: 0

Request: Please report the measured Plant response rating, Corn for O=C1NCC(c2cccc(OCc3ccco3)c2)C1C(=O)Nc1cccc(F)c1F (centres unmarked) [Compound 9] tested on corn (Zea mays).
Response: 0
